Target: T1, Human CD137 ECD (human)
T1 construct: entry includes C-terminal His-tag and biotin acceptor peptide; also called human CD137 extracellular domain; 4-1BB
T1 sequence (chain, as listed by the source limits assumed): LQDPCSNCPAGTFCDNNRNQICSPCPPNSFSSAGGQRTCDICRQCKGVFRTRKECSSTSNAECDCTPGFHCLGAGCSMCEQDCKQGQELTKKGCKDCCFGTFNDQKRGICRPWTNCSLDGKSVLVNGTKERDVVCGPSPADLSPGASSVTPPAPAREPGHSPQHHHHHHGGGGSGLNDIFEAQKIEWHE
Experiment: Biacore SPR, vs parent H183/L072
Measurement kind: fold change of affinity (fold)
Respond numerically; units are fold and should not be typed.

1) H183/L072 VL N53K (antibody, name in Kabat numbering, V domains shown, Dual-Ig) VH: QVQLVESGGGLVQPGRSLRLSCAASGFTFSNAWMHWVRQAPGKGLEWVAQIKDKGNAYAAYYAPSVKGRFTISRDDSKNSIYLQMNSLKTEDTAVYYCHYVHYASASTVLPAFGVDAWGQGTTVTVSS VL: DIVMTQSPLSLPVTPGEPASISCQASQELVHMNRNTYLHWYQQKPGQAPRLLIYKVSKRFPGVPDRFSGSGSGTDFTLKISRVEAEDVGVYYCAQGTSVPFTFGQGTKLEIK | 0.2

// fold change of affinity lookup, key: H183/L072 VL S52M (antibody, name in Kabat numbering, V domains shown, Dual-Ig) VH: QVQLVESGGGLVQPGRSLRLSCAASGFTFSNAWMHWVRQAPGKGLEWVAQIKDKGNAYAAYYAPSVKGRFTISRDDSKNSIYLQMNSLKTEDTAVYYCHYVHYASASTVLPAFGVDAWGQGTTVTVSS VL: DIVMTQSPLSLPVTPGEPASISCQASQELVHMNRNTYLHWYQQKPGQAPRLLIYKVMNRFPGVPDRFSGSGSGTDFTLKISRVEAEDVGVYYCAQGTSVPFTFGQGTKLEIK
1.1
